- assay_overview: LNP size and polydispersity index by Dynamic Light Scattering (Malvern Zetasizer)
- Format: physicochemical
- details: Table 5; ionizable lipid/DSPC/Chol/DMG-PEG2000 50/10/38.5/1.5 mol %; E7 mRNA; N/P 10
property_name: PDI
// print number alone

Please review the following examples before continuing.
>  <compound>
CCCCCCCC/C=C\CCCCCCCC(=O)OCC(CNC(=O)OCCOC(C)(C)OCCOC(=O)NCCN1CCCCCC1)OC(=O)CCCCCCC/C=C\CCCCCCCC (stereo not shown)

>  <PDI>
0.130

$$$$
>  <compound>
CCCCC/C=C\C/C=C\CCCCCCCCC(CCCCCCCC/C=C\C/C=C\CCCCC)OC(=O)CCCN(C)C [MC3, reference compound]

>  <PDI>
0.106

$$$$
>  <compound>
CCCCCCCC/C=C\CCCCCCCC(=O)OCC(CNC(=O)OCCSSCCOC(=O)NCCN1CCCCCC1)OC(=O)CCCCCCC/C=C\CCCCCCCC (stereo not shown)

>  <PDI>
0.062

$$$$

PDI for CCCCCCCC/C=C\CCCCCCCC(=O)OCC(CNC(=O)OCCSSCCOC(=O)NCCCN1CCCCC1CC)OC(=O)CCCCCCC/C=C\CCCCCCCC (stereo not shown) is 0.266

----------
- assay_overview: LNP size and polydispersity index by Dynamic Light Scattering (Malvern Zetasizer)
- Assay type: physicochemical
- details: Table 3; LNP ionizable lipid/phospholipid/cholesterol/DMG-PEG2000 about 50/10/38.5/1.5; DOPE, except MC-3 with DSPC; eGFP mRNA; in nm (unit assumed)
I'd appreciate it if you marked entries Condition met when size is lower than 90 and Condition not met when it is not.

>  <compound>
CCCCCCCC/C=C\CCCCCCCC(=O)OCC(CNC(=O)OCCOC(C)(C)OCCOC(=O)NCCCN1CCCCC1CC)OC(=O)CCCCCCC/C=C\CCCCCCCC (stereo not drawn)

>  <class_assignment>
Condition met

$$$$
>  <compound>
CCCCCCCC/C=C\CCCCCCCC(=O)OCC(CNC(=O)OCCOCCOC(=O)NCCN1CCCCCC1)OC(=O)CCCCCCC/C=C\CCCCCCCC (stereo not drawn)

>  <class_assignment>
Condition not met

$$$$
>  <compound>
CCCCC/C=C\C/C=C\CCCCCCCCC(CCCCCCCC/C=C\C/C=C\CCCCC)OC(=O)CCCN(C)C [MC3, reference compound]

>  <class_assignment>
Condition met

$$$$

Next up:
Challenge: Lab note: size threshold 90. Does this compound come in strictly under it? CCCCCCCC/C=C\CCCCCCCC(=O)OCC(CNC(=O)OCCSSCCOC(=O)NCCCN1CCCCC1CC)OC(=O)CCCCCCC/C=C\CCCCCCCC (stereo not drawn)
Response given: Condition met

----------
- assay_overview: LNP size and polydispersity index by Dynamic Light Scattering (Malvern Zetasizer)
- Type: physicochemical
- details: Table 2; LNP ionizable lipid/DOPE/cholesterol/DMG-PEG2000 about 50/10/38.5/1.5; eGFP mRNA
Recorded PDI values for a group of compounds are listed next.
// print number alone

Please review the following examples before continuing.
>  <compound>
CCCCCCCCCCCCN(CCCCCCCCCCCC)C(=O)OCCSSCCOC(=O)NCCN(C)C

>  <numeric_value>
0.44

$$$$
>  <compound>
CCCCCCCCCCCCCCCCCCN(CCCCCCCCCCCCCCCCCC)C(=O)OCCSSCCOC(=O)NCCN(C)C

>  <numeric_value>
0.042

$$$$
>  <compound>
CCCCCCCCCCCCN(CCCCCCCCCCCC)C(=O)OCCSSCCOC(=O)NCCN1CCCCCC1

>  <numeric_value>
0.223

$$$$

Let's switch to this compound now.
PDI for CCCCC/C=C\C/C=C\CCCCCCCCC(CCCCCCCC/C=C\C/C=C\CCCCC)OC(=O)CCCN(C)C [MC3, reference compound] is 0.103
